Target: Sigma non-opioid intracellular receptor 1 (Homo sapiens, UniProt Q99720)
Sequence (Q99720 whole entry): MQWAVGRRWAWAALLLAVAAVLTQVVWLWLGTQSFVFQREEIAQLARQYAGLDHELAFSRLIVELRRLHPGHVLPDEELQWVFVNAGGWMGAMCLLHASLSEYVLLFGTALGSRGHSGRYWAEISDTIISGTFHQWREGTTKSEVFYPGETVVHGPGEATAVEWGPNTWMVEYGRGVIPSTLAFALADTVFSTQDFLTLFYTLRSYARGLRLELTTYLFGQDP
Experiment: Displacement of [3H]-pentazocine from human Sigma 1 receptor by radioligand displacement assay
pKi: −log10 of the molar value.
parameter: pKi

Recorded results for 5 compounds are shown here.
CC1(C)SCC(CN2CCN(Cc3ccccc3)CC2)S1 (configuration not stated) : 9.22
CC1(C)SCC(CN2CCC(Cc3ccccc3)CC2)S1 (configuration not stated) : 8.70
O=C(O)C(=O)O.c1ccc(CC2CCN(CC3CSCS3)CC2)cc1 (configuration not stated) : 9.30
c1ccc(CC2CCN(C[C@@H]3CS[C@@]4(CCCCc5ccccc54)S3)CC2)cc1 : 7.17
C[C@]1(c2ccccc2)SC[C@H](CN2CCC(Cc3ccccc3)CC2)S1 : 7.17

A = c1ccc(CC2CCN(C[C@@H]3CS[C@]4(CCc5ccccc54)S3)CC2)cc1
B = c1ccc(CC2CCN(C[C@@H]3CS[C@]4(CCCc5ccccc54)S3)CC2)cc1
C = CC1(C)OCC(CN2CCN(Cc3ccccc3)CC2)O1 (configuration not stated)
[Q] Please list these in order of increasing pKi. Thank you! Put the labels in the requested order and list them out.
[A] B, A, C

I = c1ccc(CC2CCN(C[C@H]3CS[C@@]4(CCCCc5ccccc54)S3)CC2)cc1
II = c1ccc(CC2CCN(CC3CSC4(CCCCCC4)S3)CC2)cc1 (configuration not stated)
III = CC1(C)OCC(CN2CCC(Cc3ccccc3)CC2)O1 (configuration not stated)
[Q] Please list these in order of increasing pKi. Thank you! Put the labels in the requested order and list them out.
[A] I, II, III
(I: 6.71, II: 8.77, III: 9.22)

I = c1ccc(CC2CCN(C[C@H]3CS[C@]4(CCc5ccccc54)S3)CC2)cc1
II = c1ccc(CC2CCN(CC3CSC4(CCCC4)S3)CC2)cc1 (configuration not stated)
III = c1ccc(CC2CCN(CC3CSC4(S3)c3ccccc3-c3ccccc34)CC2)cc1 (configuration not stated)
[Q] Please list these in order of increasing pKi. Thank you! Put the labels in the requested order and list them out.
[A] I, III, II

----------
Target: Sigma intracellular receptor 2 (Homo sapiens, UniProt Q5BJF2)
Sequence (Q5BJF2 whole entry): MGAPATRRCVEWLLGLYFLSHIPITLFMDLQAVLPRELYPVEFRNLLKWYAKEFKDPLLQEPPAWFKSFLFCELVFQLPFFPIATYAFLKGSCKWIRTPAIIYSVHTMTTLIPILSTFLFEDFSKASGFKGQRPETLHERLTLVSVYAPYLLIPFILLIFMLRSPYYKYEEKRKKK
Assay: Displacement of [3H]-ditolylguanidine from human Sigma 2 receptor by radioligand displacement assay
parameter: Ki (nM)

I = CC1(C)SCC(CN2CCN(Cc3ccccc3)CC2)S1 (configuration not stated)
II = C[C@]1(c2ccccc2)SC[C@@H](CN2CCC(Cc3ccccc3)CC2)S1
[Q] // which entry reports the smaller Ki, I or II ? Write down the label of the entry you select.
[A] I
(I: 3.3 nM, II: 63 nM)

1 = c1ccc(CC2CCN(CC3CSC4(CCCC4)S3)CC2)cc1 (configuration not stated)
2 = CC1(C)OCC(CN2CCC(Cc3ccccc3)CC2)O1 (configuration not stated)
3 = c1ccc(CC2CCN(C[C@@H]3CS[C@]4(CCc5ccccc54)S3)CC2)cc1
[Q] hey, can you rank those molecules up there by Ki? biggest number first please Put the labels in the requested order and list them out.
[A] 3, 2, 1
(3: 30 nM, 2: 6.2 nM, 1: 3 nM)

P = c1ccc(CC2CCN(C[C@@H]3CS[C@@]4(CCCCc5ccccc54)S3)CC2)cc1
Q = CC1(C)SCC(CN2CCC(Cc3ccccc3)CC2)S1 (configuration not stated)
[Q] Endpoint returns the identifier whose Ki is numerically larger, either P or Q . Write down the label of the entry you select.
[A] P

a = C[C@]1(c2ccccc2)SC[C@H](CN2CCC(Cc3ccccc3)CC2)S1
b = CC1(C)OCC(CN2CCN(Cc3ccccc3)CC2)O1 (configuration not stated)
[Q] // which entry reports the smaller Ki, a or b ? Write down the label of the entry you select.
[A] a

----------
Target: Sigma non-opioid intracellular receptor 1 (Cavia porcellus, UniProt Q60492)
Sequence (Q60492 whole entry): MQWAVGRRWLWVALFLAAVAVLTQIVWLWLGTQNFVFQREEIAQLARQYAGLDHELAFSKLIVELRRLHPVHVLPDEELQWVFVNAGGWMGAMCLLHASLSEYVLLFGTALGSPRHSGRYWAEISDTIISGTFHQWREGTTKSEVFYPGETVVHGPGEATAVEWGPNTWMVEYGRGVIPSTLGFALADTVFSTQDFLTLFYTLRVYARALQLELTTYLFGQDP
Assay: Displacement of [3H](+)-pentazocine from sigma 1 receptor in guinea pig brain cortex membranes after 150 mins by scintillation counting analysis
Assay type: cell membranes
// reported pKi per item
Conceptually, pKi converts a concentration in mol/L into minus its log10.

O=C(O)C(=O)O.c1ccc(CC2CCN(CC3CSC4(CCCCC4)S3)CC2)cc1 (configuration not stated) : 7.92

API: the following record is the query input.
[Q] What measured pKi is associated with O=C(O)C(=O)O.c1ccc(CN2CCN(CC3CSC4(CCCCC4)O3)CC2)cc1 (configuration not stated) on Sigma non-opioid intracellular receptor 1 (Cavia porcellus, UniProt Q60492)?
[A] 8.89

----------
Biological target: Sigma intracellular receptor 2 (Homo sapiens, UniProt Q5BJF2)
Assay: Displacement of [3H]-ditolylguanidine from human Sigma 2 receptor by radioligand displacement assay
pKi: −log10 of the molar value.
parameter: pKi

1 = c1ccc(CC2CCN(C[C@@H]3CS[C@]4(CCCc5ccccc54)S3)CC2)cc1
2 = c1ccc(CC2CCN(CC3CSC4(CCCCCC4)S3)CC2)cc1 (stereo not given)
3 = c1ccc(CC2CCN(C[C@H]3CS[C@@]4(CCCCc5ccccc54)S3)CC2)cc1
[Q] Sort these compounds on pKi so the largest reading comes first. Put the labels in the requested order and list them out.
[A] 2, 1, 3
(2: 8.09, 1: 7.03, 3: 6.80)

----------
// reported Ki per item
Assay: Displacement of [3H][…]-DTG from sigma 2 receptor in guinea pig brain cortex membranes after 150 mins by liquid scintillation counter method
Format: cell membranes, Cavia porcellus
Give the value, in units of nM, as a plain number.

Recorded results for 2 molecules are shown here.
O=C(O)C(=O)O.c1ccc(CN2CCN(CC3COC4(CCCCC4)O3)CC2)cc1 (stereo not drawn) : 35
O=C(O)C(=O)O.c1ccc(CC2CCN(CC3CSC4(CCCCC4)S3)CC2)cc1 (stereo not drawn) : 5

[Q] Requested field: Ki. Item: O=C(O)C(=O)O.c1ccc(CN2CCN(CC3CSC4(CCCCC4)O3)CC2)cc1 (stereo not drawn)
[A] 91

----------
Biological target: Sigma non-opioid intracellular receptor 1 (Homo sapiens)
Experiment: Displacement of [3H]-pentazocine from human Sigma 1 receptor by radioligand displacement assay
parameter: Ki (nM)

O=C(O)C(=O)O.O=C(O)C(=O)O.c1ccc(CN2CCN(CC3CSCS3)CC2)cc1 (stereo not drawn) : 2.1

a = C[C@]1(c2ccccc2)SC[C@@H](CN2CCC(Cc3ccccc3)CC2)S1
b = c1ccc(CC2CCN(C[C@@H]3CS[C@@]4(CCCc5ccccc54)S3)CC2)cc1
[Q] Endpoint returns the identifier whose Ki is numerically larger, either a or b . Write down the label of the entry you select.
[A] a
(a: 76 nM, b: 52 nM)

----------
Target: Sigma intracellular receptor 2 (Homo sapiens)
Test: Displacement of [3H]-ditolylguanidine from human Sigma 2 receptor by radioligand displacement assay
pKi: −log10 of the molar value.
parameter: pKi

c1ccc(CC2CCN(CC3CSC4(S3)c3ccccc3-c3ccccc34)CC2)cc1 (stereo not drawn) : 7.15
c1ccc(CC2CCN(C[C@H]3CS[C@]4(CCc5ccccc54)S3)CC2)cc1 : 7.19
c1ccc(CC2CCN(C[C@@H]3CS[C@@]4(CCCc5ccccc54)S3)CC2)cc1 : 7.06
